# credit: ChEMBL document CHEMBL1649241

Test system: Vero
TEST_NAME: Cytotoxicity against african green monkey Vero cells assessed as incorporation of [3H]hypoxanthine after 48 hrs
Assay type: cell-based
DETAILS: chlorocebus sabaeus
ENDPOINT: Activity (µM)
Numbers only, in µM.

Below are worked cases with known answers.
CC[C@H](C)C(=O)O[C@@H]1[C@H]2C(C)=CC(=O)[C@@H](O)[C@]2(C)[C@H]2[C@@H](O)[C@H](O)[C@@]3(C)OC[C@@]24[C@@H]1OC(=O)[C@H](OC(=O)[C@@H](C)CC)[C@@H]34 [SIMALIKALACTONE E]: 6.574
COc1cc(NC(C)CCCN)c2ncccc2c1 (centres undefined) [PRIMAQUINE]: 340

Here's the next entry for you.
What measured Activity goes with CC[C@@H](C)C(=O)O[C@H]1C(=O)O[C@@H]2C[C@H]3C(C)=CC(=O)[C@@H](O)[C@]3(C)[C@H]3[C@@H](O)[C@H](O)[C@]4(C)OC[C@]32[C@@H]14 [SIMALIKALACTONE D] ?
0.058
